tested on: P. aerug. Ps296 VIM-2; assay: Broth microdilution MIC, P. aeruginosa Ps296; assay type: cell-based; settings: Pseudomonas aeruginosa; fixed meropenem 4 μg/mL, CAMHB, 16-20 hours 37° C.; read-out: MIC of exemplary compounds in presence of fixed β-lactams, Fixed Mero, P. aerug. Ps296 VIM-2
Please go through the items and note down their MIC.

Provide the reported MIC of each entry below, same order.
1. NCC1CCC(CC(=O)N[C@H]2Cc3cccc(C(=O)O)c3OB2O)(C[N+](=O)[O-])CC1 (stereo partly shown)
2. NC1CN(C2CCC(CC(=O)N[C@H]3Cc4cccc(C(=O)O)c4OB3O)CC2)C1 (stereo partly shown)

1: 8 to 32 µg/mL; 2: < 4 µg/mL

====

test system: P. aerug. Ps296 VIM-2; assay: Broth microdilution MIC, P. aeruginosa Ps296; assay type: cell-based; details: Pseudomonas aeruginosa; fixed meropenem 4 μg/mL, CAMHB, 16-20 hours 37° C.; read-out: MIC of exemplary compounds in presence of fixed β-lactams, Fixed Mero, P. aerug. Ps296 VIM-2
Reported Metric: MIC

Example molecules with recorded MIC:
| Molecule | System | Reported Metric | Endpoint Value |
| --- | --- | --- | --- |
| N[C@H](CO)CN[C@H]1CC[C@H](CC(=O)N[C@H]2Cc3cccc(C(=O)O)c3OB2O)CC1 | P. aerug. Ps296 VIM-2 | MIC | < 4 µg/mL |
| N=C(N)NC[C@H]1CC[C@H](CC(=O)N[C@H]2Cc3cccc(C(=O)O)c3OB2O)CC1 | P. aerug. Ps296 VIM-2 | MIC | < 4 µg/mL |
| CC(NC(=O)C1C[C@H](N)[C@@H](N)C1)C(=O)N[C@H]1Cc2cccc(C(=O)O)c2OB1O (some centres unmarked) | P. aerug. Ps296 VIM-2 | MIC | < 4 µg/mL |

Provide the reported MIC of each entry below, same order.
1. CC(C)NCCN[C@H]1CC[C@H](CC(=O)N[C@H]2Cc3cccc(C(=O)O)c3OB2O)CC1
2. N=C(N)NC1CN(C2CCC(CC(=O)N[C@H]3Cc4cccc(C(=O)O)c4OB3O)CC2)C1 (some centres unmarked)
3. O=C(C[C@H]1CC[C@H](N(Cc2ncc[nH]2)Cc2ncc[nH]2)CC1)N[C@H]1Cc2cccc(C(=O)O)c2OB1O
4. O=C(C[C@H]1CC[C@H](NCCNC2CCCC2)CC1)N[C@H]1Cc2cccc(C(=O)O)c2OB1O
5. NCCNC(=O)NC1CC(CC(=O)N[C@H]2Cc3cccc(C(=O)O)c3OB2O)C1 (some centres unmarked)
6. O=C(C[C@H]1CC[C@H](NCc2nccs2)CC1)N[C@H]1Cc2cccc(C(=O)O)c2OB1O

1: < 4 µg/mL; 2: 8 to 32 µg/mL; 3: < 4 µg/mL; 4: < 4 µg/mL; 5: < 4 µg/mL; 6: 8 to 32 µg/mL

Provide the reported MIC of each entry below, same order.
1. CN(C)CCN[C@H]1CC[C@H](CC(=O)N[C@H]2Cc3cccc(C(=O)O)c3OB2O)CC1
2. O=C(C[C@H]1CC[C@H](NCC2CCNCC2)CC1)N[C@H]1Cc2cccc(C(=O)O)c2OB1O

1: < 4 µg/mL; 2: 8 to 32 µg/mL
